procedure-text: Pharmacokinetic activity in rats: IV bolus and oral gavage; plasma, brain and CSF levels by LC-MS/MS
Type: in vivo, Male Sprague-Dawley rats
test-parameters: male, Sprague-Dawley, plasma; rat, IV bolus 1 mg/kg; read-out: volume of distribution
attribute-measured: Vd
Reply with the number and its unit after it.

Input: # input compound: CCOC(=O)CN1N=C(c2ccc(S(C)(=O)=O)cc2)C(C)(NO)C1=O (stereo not shown) ; wanted: its Vd
Output: 1.1 L/kg

* * *

procedure-text: Pharmacokinetic activity in rats: IV bolus and oral gavage; plasma, brain and CSF levels by LC-MS/MS
Format: in vivo, Male Sprague-Dawley rats
test-parameters: male, Sprague-Dawley; rat, IV bolus 1 mg/kg, plasma
attribute-measured: half-life (min)
Value expressed in min; do not type the unit.

Input: # input compound: CCOC(=O)CN1N=C(c2ccc(S(C)(=O)=O)cc2)C(C)(NO)C1=O (stereo not shown) ; wanted: its half-life
Output: 24

* * *

procedure-text: Pharmacokinetic activity in rats: IV bolus and oral gavage; plasma, brain and CSF levels by LC-MS/MS
Format: in vivo, Male Sprague-Dawley rats
test-parameters: male, Sprague-Dawley, CSF; rat, PO 10 mg/kg, 0.25-2 h; read-out: mean CSF:plasma ratio
attribute-measured: Kp
Just the number, please.

Input: # input compound: CCOC(=O)CN1N=C(c2ccc(S(C)(=O)=O)cc2)C(C)(NO)C1=O (stereo not shown) ; wanted: its Kp
Output: 4

* * *

procedure-text: Pharmacokinetic activity in rats: IV bolus and oral gavage; plasma, brain and CSF levels by LC-MS/MS
Assay type: in vivo, Male Sprague-Dawley rats
test-parameters: male, Sprague-Dawley, CSF; rat, PO Compound 6 10 mg/kg, at 0.25 h; read-out: Cmax in CSF
attribute-measured: Cmax (ng/mL)
Value expressed in ng/mL; do not type the unit.

Input: # input molecule: CCOC(=O)CN1N=C(c2ccc(S(C)(=O)=O)cc2)C(C)(NO)C1=O (stereo not shown) ; wanted: its Cmax
Output: 26

* * *

procedure-text: Pharmacokinetic activity in rats: IV bolus and oral gavage; plasma, brain and CSF levels by LC-MS/MS
Format: in vivo, Male Sprague-Dawley rats
test-parameters: male, Sprague-Dawley; rat, IV bolus 1 mg/kg, plasma
attribute-measured: C0
Reply with the number and its unit after it.

Input: # input molecule: CCOC(=O)CN1N=C(c2ccc(S(C)(=O)=O)cc2)C(C)(NO)C1=O (stereo not shown) ; wanted: its C0
Output: 110 ng/mL

Sourced from patent US10723704B2
